Source listed as the NIST ThermoML archive (doi:10.1021/je400835u).

- CONDITION_NOTES: 308.15 K; 100 kPa; Liquid; Vibrating tube method
REPORTED_METRIC: mass density (kg/m3)

>>> endpoint_value("CCCCCCCCC")
706.19
>>> endpoint_value("CCCCCCCCCCCC")
738.12
>>> endpoint_value("CCCCCCC")
671.12
>>> endpoint_value("CCCCCCCCCCCCCC")
752.51
>>> endpoint_value("CCCCCCCC")
690.73
>>> endpoint_value("CCCCC1CCCCC1")
788.19
>>> endpoint_value("CCCCCCCCCC")
719.17

====

- CONDITION_NOTES: 293.15 K; 100 kPa; Liquid; Falling or rolling sphere viscometry
REPORTED_METRIC: viscosity (mPa·s)

>>> endpoint_value("CCCCCCCCCC")
0.93

a = CCCCCCCCCCCCCC
b = CCCCCCCCCCCC
c = CCCCCCCCC
d = CCCCCCC
Incoming: # desc sort on viscosity across 4 compounds Returns: the labels listed in the requested order.
Outgoing: a, b, c, d

1 = CCCCCCCC
2 = CCCCC1CCCCC1
Incoming: Min viscosity? 1 | 2 Reply briefly: the label of your chosen item.
Outgoing: 1
(1: 0.546 mPa·s, 2: 1.296 mPa·s)
